- Test system: MDA-MB-468 breast
- Assay Info: NCI-60 one-dose screen, 48 h
- Test Settings: 10 µM unless noted
This is part of a sample that, as a whole, favours compounds with a hit. Of some 83,000 tested, about 20% had one in any assay. The source made the active and inactive calls. Rule for the calls: active = growth percent below 10; inactive = the rest.
Form entry, call: pick from true (1) = active, false (0) = inactive

### Prompt Please state the recorded outcome for this compound: CC1CC2C3CCC4=CC(=O)CCC4(C)C3CCC2(C)C1(O)C(=O)CO (stereo not given)
### Response false (0)

### Prompt Please state the recorded outcome for this compound: CN1CCOCCN(C)Cc2ccc3ccc(cc3c2)CN(C)CCOCCN(C)Cc2ccc3ccc(cc3c2)C1
### Response false (0)

### Prompt Please state the recorded outcome for this compound: COc1ccc(NC(=S)N/N=C/c2ccccc2SSCCC(=O)OC[C@H]2O[C@H](O)[C@H](O)[C@@H](O)[C@@H]2O)cc1
### Response true (1)

### Prompt Please state the recorded outcome for this compound: C=CC(=O)NCc1cccc(Nc2ncc(Br)c(NCCCNC(=O)C3CCC3)n2)c1
### Response true (1)

### Prompt Please state the recorded outcome for this compound: Cc1ccc(-c2nc(N3CCNCC3)c3oc(-c4ccc(C)cc4)nc3n2)cc1
### Response true (1)

### Prompt Please state the recorded outcome for this compound: O=C(Cc1ccc(/C=C/C(=O)c2ncc[nH]2)cc1)Nc1ccc(S(F)(F)(F)(F)F)cc1
### Response false (0)

### Prompt Please state the recorded outcome for this compound: N#CC1=C(NC=O)Oc2c(ccc3ccccc23)C1c1ccccc1 (stereo not given)
### Response false (0)

### Prompt Please state the recorded outcome for this compound: CCOC(=O)c1ccc(NC(=O)CSC(N)=O)cc1
### Response false (0)

### Prompt Please state the recorded outcome for this compound: O=C(Nc1ccccc1F)Nc1ccccc1Cl
### Response false (0)

### Prompt Please state the recorded outcome for this compound: O=C1c2ccccc2C(=O)c2c1ccc1[nH]c(-c3cccs3)nc21
### Response false (0)
